PROTOCOL_TEXT: Ratio of brain to plasma in LaFerla 3xTg-C57BL6 mouse at 30 mg/kg, po
Assay type: ADME, organism-based
Parameters: dose 30 mg/kg, route oral
RUN_PARAMETERS: brain and plasma, read-out: BPR
TEST_READOUT: Kp
Numbers only.

q: I'd like to know its Kp. The compound in question is COc1nc(-c2ccnc(NC(=O)C3CC3)c2)sc1C(N)=O
a: 0.26

###

TARGET_ENTITY: Glycogen synthase kinase-3 beta (Homo sapiens)
Sequence (P49841 whole entry): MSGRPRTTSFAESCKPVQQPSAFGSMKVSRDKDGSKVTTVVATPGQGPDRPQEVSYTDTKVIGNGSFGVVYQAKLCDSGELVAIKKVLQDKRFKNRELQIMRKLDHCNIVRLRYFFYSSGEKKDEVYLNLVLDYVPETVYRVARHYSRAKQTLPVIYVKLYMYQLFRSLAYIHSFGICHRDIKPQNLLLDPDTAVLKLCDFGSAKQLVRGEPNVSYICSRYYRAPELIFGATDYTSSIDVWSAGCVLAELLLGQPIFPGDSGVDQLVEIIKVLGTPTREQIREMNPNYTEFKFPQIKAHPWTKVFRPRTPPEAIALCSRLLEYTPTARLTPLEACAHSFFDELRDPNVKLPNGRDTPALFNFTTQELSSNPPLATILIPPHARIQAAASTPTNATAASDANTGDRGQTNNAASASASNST
pIC50: −log10 of the molar value.
# cutoff 8 applies to pIC50; >= gives TRUE, < gives FALSE

Before answering, review these 3 worked examples.
ITEM_SMILES: Cn1nc(C(N)=O)cc1-c1ccnc(NC(=O)C2CC2)c1
CATEGORY_LABEL: FALSE

ITEM_SMILES: O=C(Nc1cc(-c2ccc3ccncc3c2)ccn1)C1CC1
CATEGORY_LABEL: FALSE

ITEM_SMILES: O=C1NCCOc2cc(-c3ccnc(NC(=O)C4CC4)c3)ccc21
CATEGORY_LABEL: TRUE

q: Decide: pIC50 of O=C1CCCc2cc(-c3ccnc(NC(=O)C4CC4)c3)ccc2N1 >= 8?
a: FALSE

q: Same read-out for CC(C)Oc1nc(-c2ccnc(NC(=O)C3CC3)c2)ncc1C(N)=O ?
a: TRUE
